This collection of values is drawn from patent US20240139221A1.

# TEST_METHOD_NOTES: Approximate solubility in solvents at 25° C. and 50° C., visual observation
# Format: physicochemical
# ASSAY_SETUP: 25 °C, organic solvent or mixture, thermodynamic from solid, Table 14, EtOH, 25° C., read-out: Solubility (mg/mL) 25° C.
RECORDED_ENDPOINT: solubility

Could you tell me which solubility is on file for CCOC(=O)[C@H](C)NP(=O)(COCCn1cnc2c(OC)nc(N)nc21)OCc1ccccc1.O=C(O)/C=C/C(=O)O (mixture of isomers) [Compound I monofumarate] ?
> 100 mg/mL

---

Entries and their solubility
# TEST_METHOD_NOTES: physchem
# ASSAY_SETUP: 37 °C, aqueous buffer, thermodynamic from solid

# COMPOUND, RECORDED_RESULT
measured = [
    ("CCOC(=O)[C@H](C)N[P@](=O)(COCCn1cnc2c(OC)nc(N)nc21)OCc1ccccc1 (single isomer, unassigned) [Compound III, monofumarate]", "> 2000 µg/mL"),
]

Now let's try a different one.
Could you tell me which solubility is on file for CCOC(=O)[C@H](C)N[P@@](=O)(COCCn1cnc2c(OC)nc(N)nc21)OCc1ccccc1.O=C(O)/C=C/C(=O)O [Compound II] ?
> 2000 µg/mL
